Target protein (sequence): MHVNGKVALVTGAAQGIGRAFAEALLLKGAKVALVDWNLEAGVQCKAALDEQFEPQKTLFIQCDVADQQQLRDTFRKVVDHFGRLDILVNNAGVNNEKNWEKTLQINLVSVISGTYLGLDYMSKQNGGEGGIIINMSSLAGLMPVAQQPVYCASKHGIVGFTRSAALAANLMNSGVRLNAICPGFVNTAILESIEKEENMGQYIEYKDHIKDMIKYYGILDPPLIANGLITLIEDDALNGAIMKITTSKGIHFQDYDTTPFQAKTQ
Observable: IC50 (µM)
The response must be a number in µM with no trailing unit.

# IC50 (compound: O=C1NC(=O)C(Cc2ccccc2Oc2ccc(Cl)cc2)S1 (stereo not shown) [compound 1] ) is 2.2
